assaySystem: ALK2 (GST-modified kinase domain ACVR1(145-509)) (Homo sapiens)
Construct: N-terminally GST-modified kinase domain ACVR1(145-509); GST (N)
protocolDetails: ALK2 kinase inhibition assay (33P-ATP filter binding, Reaction Biology)
Assay type: biochemical
statedConditions: casein substrate, 20 μM ATP (Km ATP), 120 min ambient temperature
Description: The protein sequences of the kinases targeted and accompanying information are described in publically available data base http://www.uniprot.org/uniprot/for ALK1 www.uniprot.org/uniprot/P37023, for ALK2 www.uniprot.org/uniprot/Q04771 and for ALK5 www.uniprot.org/uniprot/P36897. […]
Exercise: for every item that follows, state its recorded pIC50.
Numbers only, as −log10 of the molar value.

CN1CCN(c2ccc3[nH]c(-c4cc(-c5ccc(F)c(CO)c5)c[nH]c4=O)nc3c2)CC1: 7.70

Answer for every listed entry: what is its pIC50? The entries follow.
1. O=c1[nH]cc(-c2ccnc3[nH]ccc23)cc1-c1nc2cc(N3CCC(O)CC3)ccc2[nH]1
2. O=c1[nH]cc(-c2ccc(F)c(CO)c2)cc1-c1nc2cc(N3CCNCC3)ccc2[nH]1
3. O=c1[nH]cc(-c2ccnc3ccccc23)cc1-c1nc2ccccc2[nH]1

Return:
1. 7.72
2. 7.72
3. 6.20

###

Tested on: ALK1-mediated SMAD1/5 phosphorylation in HUVEC cells
protocolDetails: Cell-based immunofluorescence assay for ALK1-mediated SMAD1/5 phosphorylation in HUVEC cells
statedConditions: Homo sapiens, 1.5 ng/ml BMP-9 with compound for 2 h, % nuclei with pSMAD1/5 signal, read-out: Smad 1/5 IC50
From the text: In vitro cell-based Immunofluorescence-Assay for identification of inhibitors of ALK1-mediated SMAD1/5 phosphorylation in HUVEC cells: ALK1 is a type I cell-surface receptor for the TGF-β superfamily of ligands. In adults ALK1 is mainly expressed on activated endothelial cells, e.g. during wound healing or in tumor angiogenesis. BMP9 and BMP10 are high affinity ligands for ALK1. […]
Counter-ions that a name gives are not always drawn.
Exercise: for every item that follows, state its recorded pIC50.
Give bare numbers, as −log10 of the molar value.

Past entries and their recorded results:
O=c1[nH]cc(-c2cccc(CO)c2)cc1-c1nc2cc(N3CCC(O)CC3)ccc2[nH]1 [Compound A12]: 5.14
O=c1[nH]cc(-c2cccc(CO)c2)cc1-c1nc2cc(N3CCNCC3)ccc2[nH]1 [Compound A13, dihydrochloride]: 6.40
CN1CCN(c2ccc3[nH]c(-c4cc(-c5ccnc6[nH]ccc56)c[nH]c4=O)nc3c2)CC1 [Compound A50]: 6.40

Next molecule, pIC50 to be filled in.
Consider O=c1[nH]cc(-c2ccnc3[nH]ccc23)cc1-c1nc2cc(Oc3ccncc3)ccc2[nH]1 [Compound A40] . Its measured pIC50 is 5.28

###

assaySystem: ALK5 (TGFβR1; GST-modified TGFBR1 (200-503)) (Homo sapiens)
Construct: Using GST-Modified TGFBR1 (200-503); GST
Sequence (P36897 200-503): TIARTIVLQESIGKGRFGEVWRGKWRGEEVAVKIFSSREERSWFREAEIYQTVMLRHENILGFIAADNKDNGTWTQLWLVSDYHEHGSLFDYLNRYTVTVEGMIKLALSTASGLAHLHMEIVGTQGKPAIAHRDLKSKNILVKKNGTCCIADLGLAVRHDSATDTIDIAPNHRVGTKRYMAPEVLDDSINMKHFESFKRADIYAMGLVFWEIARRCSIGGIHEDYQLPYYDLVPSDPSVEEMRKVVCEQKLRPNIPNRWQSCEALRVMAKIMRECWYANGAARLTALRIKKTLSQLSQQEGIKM
protocolDetails: ALK5 kinase inhibition assay (33P-ATP filter binding, Reaction Biology)
statedConditions: casein substrate, 200 μM ATP
Structures can show the parent of a compound that is named as a salt.
propertyLabel: IC50
Record the result as number plus unit.

Answer for every listed entry: what is its IC50? The entries follow.
1. CN1CCN(c2ccc3[nH]c(-c4cc(-c5ccnc6[nH]ccc56)c[nH]c4=O)nc3c2)CC1
2. O=c1[nH]cc(-c2cccc3[nH]ccc23)cc1-c1nc2cc(N3CCNCC3)ccc2[nH]1
3. O=c1[nH]cc(-c2ccnc3[nH]ccc23)cc1-c1nc2cc(N3CCNCC3)ccc2[nH]1 [Compound A44, dihydrochloride]
4. CN1CCN(c2ccc3[nH]c(-c4cc(-c5ccc(F)c(CO)c5)c[nH]c4=O)nc3c2)CC1
5. O=c1[nH]cc(-c2ccnc3[nH]ccc23)cc1-c1nc2cc(N3CCCNCC3)ccc2[nH]1

Return:
1. 170 nM
2. 1400 nM
3. 140 nM
4. 4800 nM
5. 200 nM

Consider CN1CCCN(c2ccc3[nH]c(-c4cc(-c5ccnc6[nH]ccc56)c[nH]c4=O)nc3c2)CC1 . Its measured IC50 is 280 nM

###

assaySystem: ALK2 (GST-modified kinase domain ACVR1(145-509)) (Homo sapiens)
Sequence (Q04771 145-509): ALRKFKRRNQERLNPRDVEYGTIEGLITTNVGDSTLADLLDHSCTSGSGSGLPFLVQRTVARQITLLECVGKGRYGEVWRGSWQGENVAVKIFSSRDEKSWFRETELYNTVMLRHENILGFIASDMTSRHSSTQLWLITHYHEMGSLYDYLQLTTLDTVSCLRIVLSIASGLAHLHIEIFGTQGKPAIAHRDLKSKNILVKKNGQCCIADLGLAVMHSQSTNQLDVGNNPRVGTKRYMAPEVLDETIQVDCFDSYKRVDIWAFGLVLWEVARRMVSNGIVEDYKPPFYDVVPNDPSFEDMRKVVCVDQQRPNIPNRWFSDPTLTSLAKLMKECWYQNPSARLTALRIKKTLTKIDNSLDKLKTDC
Where a name gives a salt, the structure may show the parent alone.
propertyLabel: IC50 (nM)
Give bare numbers, in nM.

O=c1[nH]cc(-c2ccnc3[nH]ccc23)cc1-c1nc2cc(N3CCNCC3)ccc2[nH]1 [Compound A44, dihydrochloride]: 6
O=c1[nH]cc(-c2cccc(CO)c2)cc1-c1nc2cc(N3CCNCC3)ccc2[nH]1 [Compound A13, dihydrochloride]: 1

Answer for every listed entry: what is its IC50? The entries follow.
1. CN1CCN(c2ccc3[nH]c(-c4cc(-c5cnn(C)c5)c[nH]c4=O)nc3c2)CC1 [Compound A30]
2. NCc1ccc2[nH]c(-c3cc(-c4ccncc4)c[nH]c3=O)nc2c1 [Compound A54]
3. CN1CCN(c2ccc3[nH]c(-c4cc(-c5cccc(CO)c5)c[nH]c4=O)nc3c2)CC1 [Compound A27]
4. Cc1cc2c(-c3c[nH]c(=O)c(-c4nc5cc(N6CCNCC6)ccc5[nH]4)c3)ccnc2[nH]1 [Compound A48a]
5. CN1CCC(Oc2ccc3[nH]c(-c4cc(-c5ccnc6ccccc56)c[nH]c4=O)nc3c2)CC1 [Compound A59]
6. O=c1[nH]cc(-c2cc(F)c(CO)c(F)c2)cc1-c1nc2cc(N3CCNCC3)ccc2[nH]1 [Compound A21, dihydrochloride]
7. CN(C)C1CCN(c2ccc3[nH]c(-c4cc(-c5cccc(CO)c5)c[nH]c4=O)nc3c2)CC1 [Compound A36, formate]

Return:
1. 710
2. 1100
3. 12
4. 44
5. 80
6. 23
7. 22

Answer for every listed entry: what is its IC50? The entries follow.
1. O=c1[nH]cc(-c2ccnc3[nH]ccc23)cc1-c1nc2cc(N3CCOCC3)ccc2[nH]1 [Compound A41]
2. CN1CCC(NC(=O)c2ccc3[nH]c(-c4cc(-c5ccncc5)c[nH]c4=O)nc3c2)CC1 [Compound A58]

Return:
7
3100
